Tested on: K. pneumoniae OXA-48
Conditions: CSV; […] MH at pH 8.5
Where a SMILES comes first, the peptide text is derived from it. [ ]: non-standard residue; d: D form. Nleu = CC(C)CNCC(=O)O; Nlys = NCCCCNCC(=O)O
For each record, write down the corresponding MIC K. pneumoniae OXA-48, […] MH at pH 8.5.
Express the reported value numerically, then name its unit.

Value lookup for MIC K. pneumoniae OXA-48, […] MH at pH 8.5; key = CC(C)C[C@H](NC(=O)CN(CC(C)C)C(=O)[C@H](CC(C)C)NC(=O)CN(CCCCN)C(=O)[C@H](CC(C)C)NC(=O)CN(CC(C)C)C(=O)[C@H](CCCCN)NC(=O)CN(CC(C)C)C(=O)[C@H](CC(C)C)NC(=O)CN(CCCCN)C(=O)[C@@H](N)CCCCN)C(N)=O [EB9, KkLlKlLkLlL] (H-K[Nlys]L[Nleu]K[Nleu]L[Nlys]L[Nleu]L-NH2)
32 ug/mL

Item: CC(C)C[C@H](NC(=O)[C@H](CC(C)C)NC(=O)[C@H](CC(C)C)NC(=O)[C@H](CCCCN)NC(=O)[C@H](CC(C)C)NC(=O)[C@H](CC(C)C)NC(=O)CN(CCCCN)C(=O)[C@H](CC(C)C)NC(=O)[C@H](CC(C)C)NC(=O)CN(CCCCN)C(=O)CNCCCCN)C(N)=O [EB6, kkLLkLLKLLL] (H-[Nlys][Nlys]LL[Nlys]LLKLLL-NH2)
8 ug/mL

# iterate: CC(C)C[C@H](NC(=O)[C@H](CC(C)C)NC(=O)[C@H](CC(C)C)NC(=O)[C@H](CCCCN)NC(=O)[C@H](CC(C)C)NC(=O)[C@H](CC(C)C)NC(=O)CN(CCCCN)C(=O)CN(CC(C)C)C(=O)CN(CC(C)C)C(=O)CN(CCCCN)C(=O)CNCCCCN)C(N)=O [EB5, kkllkLLKLLL] (H-[Nlys][Nlys][Nleu][Nleu][Nlys]LLKLLL-NH2)
8 ug/mL

// query: CC(C)C[C@H](NC(=O)[C@H](CC(C)C)NC(=O)[C@H](CC(C)C)NC(=O)[C@@H](CCCCN)NC(=O)[C@H](CC(C)C)NC(=O)[C@H](CC(C)C)NC(=O)[C@@H](CCCCN)NC(=O)[C@H](CC(C)C)NC(=O)[C@H](CC(C)C)NC(=O)[C@@H](CCCCN)NC(=O)[C@H](N)CCCCN)C(N)=O [ln69, kkLLkLLkLLL, reference compound] (H-[dK][dK]LL[dK]LL[dK]LLL-NH2)
2 ug/mL

---

Task for the reader: assign each of the following compounds its reported MIC S. aureus COL (MRSA), full MH at pH 7.4.
Tested on: S. aureus COL (MRSA)
Settings: COL, 4 h, pH 7.4
Excerpt: […]
Where a SMILES comes first, the peptide text is derived from it. [ ]: non-standard residue; d: D form. Nleu = CC(C)CNCC(=O)O; Nlys = NCCCCNCC(=O)O

Entry CC(C)CN(CC(N)=O)C(=O)CN(CC(C)C)C(=O)CN(CC(C)C)C(=O)[C@H](CCCCN)NC(=O)CN(CC(C)C)C(=O)CN(CC(C)C)C(=O)[C@H](CCCCN)NC(=O)CN(CC(C)C)C(=O)CN(CC(C)C)C(=O)[C@H](CCCCN)NC(=O)[C@@H](N)CCCCN [EB8, KKllKllKlll] (H-KK[Nleu][Nleu]K[Nleu][Nleu]K[Nleu][Nleu][Nleu]-NH2) has what MIC S. aureus COL (MRSA), full MH at pH 7.4?
>32 ug/mL

What about CC(C)C[C@H](NC(=O)[C@H](CC(C)C)NC(=O)[C@H](CC(C)C)NC(=O)[C@H](CCCCN)NC(=O)[C@H](CC(C)C)NC(=O)[C@H](CC(C)C)NC(=O)CN(CCCCN)C(=O)[C@H](CC(C)C)NC(=O)[C@H](CC(C)C)NC(=O)CN(CCCCN)C(=O)CNCCCCN)C(N)=O [EB6, kkLLkLLKLLL] (H-[Nlys][Nlys]LL[Nlys]LLKLLL-NH2) ?
8 ug/mL

Proceed to CC(C)C[C@H](NC(=O)CN(CC(C)C)C(=O)[C@H](CC(C)C)NC(=O)CN(CCCCN)C(=O)[C@H](CC(C)C)NC(=O)CN(CC(C)C)C(=O)[C@H](CCCCN)NC(=O)CN(CC(C)C)C(=O)[C@H](CC(C)C)NC(=O)CN(CCCCN)C(=O)[C@@H](N)CCCCN)C(N)=O [EB9, KkLlKlLkLlL] (H-K[Nlys]L[Nleu]K[Nleu]L[Nlys]L[Nleu]L-NH2)
>32 ug/mL

Please do the same for CC(C)C[C@H](NC(=O)[C@H](CCCCN)NC(=O)[C@@H](N)CCCCN)C(=O)N[C@@H](CC(C)C)C(=O)N[C@@H](CCCCN)C(=O)N(CC(=O)N(CC(=O)N(CCCCN)CC(=O)N(CC(=O)N(CC(=O)N(CC(N)=O)CC(C)C)CC(C)C)CC(C)C)CC(C)C)CC(C)C [EB4, KKLLKllklll] (H-KKLLK[Nleu][Nleu][Nlys][Nleu][Nleu][Nleu]-NH2) as well.
>32 ug/mL
